conditions: 349.15 K; 100 kPa; Liquid; Vibrating tube method
measured_endpoint: mass density (kg/m3)
Use kg/m3 as the unit, but write only the number.

Query: Please look at this compound and report its mass density: CC[N+](C)(C)CCCO.O=S(=O)([N-]S(=O)(=O)C(F)(F)F)C(F)(F)F
Reply: 1419.3

Query: Please look at this compound and report its mass density: CC[N+](C)(C)CCOC.O=S(=O)([N-]S(=O)(=O)C(F)(F)F)C(F)(F)F
Reply: 1384

Query: Please look at this compound and report its mass density: CC[N+](CCO)(CCO)CCO.O=S(=O)([N-]S(=O)(=O)C(F)(F)F)C(F)(F)F
Reply: 1485.5

Query: Please look at this compound and report its mass density: CC[N+](C)(CCO)CCO.O=S(=O)([N-]S(=O)(=O)C(F)(F)F)C(F)(F)F
Reply: 1470.3

Query: Please look at this compound and report its mass density: CCCC[N+](CCO)(CCO)CCO.O=S(=O)([N-]S(=O)(=O)C(F)(F)F)C(F)(F)F
Reply: 1412.8

Query: Please look at this compound and report its mass density: CCCC[N+](C)(C)CC.O=S(=O)([N-]S(=O)(=O)C(F)(F)F)C(F)(F)F
Reply: 1327.5

Query: Please look at this compound and report its mass density: C[N+](CCO)(CCO)CCO.O=S(=O)([N-]S(=O)(=O)C(F)(F)F)C(F)(F)F
Reply: 1521.4

* * *

details: 348.15 K; 100 kPa; Liquid; Concentric cylinders viscometry
# viscosity >= 30 mPa·s gives 1 (yes), anything below gives 0 (no)

These recorded examples may help you get a feel for the data.
>>> group("C[N+](CCO)(CCO)CCO.O=S(=O)([N-]S(=O)(=O)C(F)(F)F)C(F)(F)F")
"1 (yes)"
>>> group("CC[N+](C)(C)CCOC.O=S(=O)([N-]S(=O)(=O)C(F)(F)F)C(F)(F)F")
"0 (no)"
>>> group("CC[N+](C)(C)CCCO.O=S(=O)([N-]S(=O)(=O)C(F)(F)F)C(F)(F)F")
"0 (no)"
>>> group("CCCC[N+](CCO)(CCO)CCO.O=S(=O)([N-]S(=O)(=O)C(F)(F)F)C(F)(F)F")
"1 (yes)"
>>> group("CC[N+](C)(CCO)CCO.O=S(=O)([N-]S(=O)(=O)C(F)(F)F)C(F)(F)F")
"0 (no)"

Query: Threshold query (viscosity >= 30 mPa·s) on CC[N+](CCO)(CCO)CCO.O=S(=O)([N-]S(=O)(=O)C(F)(F)F)C(F)(F)F
Reply: 1 (yes)

Query: Threshold query (viscosity >= 30 mPa·s) on CCCC[N+](C)(C)CC.O=S(=O)([N-]S(=O)(=O)C(F)(F)F)C(F)(F)F
Reply: 0 (no)

* * *

conditions: 332.15 K; 100 kPa; Liquid; Vibrating tube method
measured_endpoint: mass density (kg/m3)
Use kg/m3 as the unit, but write only the number.

Check out these entries, answers already filled in.
>>> reported_measurement("CC[N+](C)(C)CCOC.O=S(=O)([N-]S(=O)(=O)C(F)(F)F)C(F)(F)F")
1399.4
>>> reported_measurement("CCCC[N+](CCO)(CCO)CCO.O=S(=O)([N-]S(=O)(=O)C(F)(F)F)C(F)(F)F")
1427.2
>>> reported_measurement("CC[N+](C)(CCO)CCO.O=S(=O)([N-]S(=O)(=O)C(F)(F)F)C(F)(F)F")
1484.9
>>> reported_measurement("CC[N+](C)(C)CCCO.O=S(=O)([N-]S(=O)(=O)C(F)(F)F)C(F)(F)F")
1433.9
>>> reported_measurement("CCCC[N+](C)(C)CC.O=S(=O)([N-]S(=O)(=O)C(F)(F)F)C(F)(F)F")
1342
>>> reported_measurement("C[N+](CCO)(CCO)CCO.O=S(=O)([N-]S(=O)(=O)C(F)(F)F)C(F)(F)F")
1536.3

Proceed to the following item.
Query: Please look at this compound and report its mass density: CC[N+](CCO)(CCO)CCO.O=S(=O)([N-]S(=O)(=O)C(F)(F)F)C(F)(F)F
Reply: 1500

* * *

details: 354.15 K; 100 kPa; Liquid; Vibrating tube method
# reported mass density; entries follow
Use kg/m3 as the unit, but write only the number.

Check out these entries, answers already filled in.
>>> reported_measurement("CCCC[N+](C)(C)CC.O=S(=O)([N-]S(=O)(=O)C(F)(F)F)C(F)(F)F")
1323.3
>>> reported_measurement("CC[N+](C)(C)CCOC.O=S(=O)([N-]S(=O)(=O)C(F)(F)F)C(F)(F)F")
1379.5
>>> reported_measurement("CCCC[N+](CCO)(CCO)CCO.O=S(=O)([N-]S(=O)(=O)C(F)(F)F)C(F)(F)F")
1408.6
>>> reported_measurement("CC[N+](C)(C)CCCO.O=S(=O)([N-]S(=O)(=O)C(F)(F)F)C(F)(F)F")
1415
>>> reported_measurement("C[N+](CCO)(CCO)CCO.O=S(=O)([N-]S(=O)(=O)C(F)(F)F)C(F)(F)F")
1517.1
>>> reported_measurement("CC[N+](C)(CCO)CCO.O=S(=O)([N-]S(=O)(=O)C(F)(F)F)C(F)(F)F")
1466

Proceed to the following item.
Query: Please look at this compound and report its mass density: CC[N+](CCO)(CCO)CCO.O=S(=O)([N-]S(=O)(=O)C(F)(F)F)C(F)(F)F
Reply: 1481.3

* * *

# reported mass density; entries follow
settings: 305.15 K; 100 kPa; Liquid; Vibrating tube method
Use kg/m3 as the unit, but write only the number.

Check out these entries, answers already filled in.
>>> reported_measurement("C[N+](CCO)(CCO)CCO.O=S(=O)([N-]S(=O)(=O)C(F)(F)F)C(F)(F)F")
1560.5
>>> reported_measurement("CCCC[N+](CCO)(CCO)CCO.O=S(=O)([N-]S(=O)(=O)C(F)(F)F)C(F)(F)F")
1450.5
>>> reported_measurement("CCCC[N+](C)(C)CC.O=S(=O)([N-]S(=O)(=O)C(F)(F)F)C(F)(F)F")
1365.4
>>> reported_measurement("CC[N+](CCO)(CCO)CCO.O=S(=O)([N-]S(=O)(=O)C(F)(F)F)C(F)(F)F")
1523.6
>>> reported_measurement("CC[N+](C)(C)CCOC.O=S(=O)([N-]S(=O)(=O)C(F)(F)F)C(F)(F)F")
1424.4

Query: Please look at this compound and report its mass density: CC[N+](C)(C)CCCO.O=S(=O)([N-]S(=O)(=O)C(F)(F)F)C(F)(F)F
Reply: 1457.3

Query: Please look at this compound and report its mass density: CC[N+](C)(CCO)CCO.O=S(=O)([N-]S(=O)(=O)C(F)(F)F)C(F)(F)F
Reply: 1508.9

* * *

conditions: 309.15 K; 100 kPa; Liquid; Vibrating tube method
# reported mass density; entries follow
Use kg/m3 as the unit, but write only the number.

Query: Please look at this compound and report its mass density: CC[N+](C)(CCO)CCO.O=S(=O)([N-]S(=O)(=O)C(F)(F)F)C(F)(F)F
Reply: 1505.3

Query: Please look at this compound and report its mass density: C[N+](CCO)(CCO)CCO.O=S(=O)([N-]S(=O)(=O)C(F)(F)F)C(F)(F)F
Reply: 1556.9

Query: Please look at this compound and report its mass density: CC[N+](C)(C)CCCO.O=S(=O)([N-]S(=O)(=O)C(F)(F)F)C(F)(F)F
Reply: 1453.8

Query: Please look at this compound and report its mass density: CC[N+](CCO)(CCO)CCO.O=S(=O)([N-]S(=O)(=O)C(F)(F)F)C(F)(F)F
Reply: 1520.1

Query: Please look at this compound and report its mass density: CCCC[N+](C)(C)CC.O=S(=O)([N-]S(=O)(=O)C(F)(F)F)C(F)(F)F
Reply: 1361.9

Query: Please look at this compound and report its mass density: CC[N+](C)(C)CCOC.O=S(=O)([N-]S(=O)(=O)C(F)(F)F)C(F)(F)F
Reply: 1420.6

Query: Please look at this compound and report its mass density: CCCC[N+](CCO)(CCO)CCO.O=S(=O)([N-]S(=O)(=O)C(F)(F)F)C(F)(F)F
Reply: 1447.1

* * *

conditions: 346.15 K; 100 kPa; Liquid; Vibrating tube method
measured_endpoint: mass density (kg/m3)
Use kg/m3 as the unit, but write only the number.

Check out these entries, answers already filled in.
>>> reported_measurement("CC[N+](C)(C)CCCO.O=S(=O)([N-]S(=O)(=O)C(F)(F)F)C(F)(F)F")
1421.9
>>> reported_measurement("CC[N+](CCO)(CCO)CCO.O=S(=O)([N-]S(=O)(=O)C(F)(F)F)C(F)(F)F")
1488
>>> reported_measurement("CCCC[N+](CCO)(CCO)CCO.O=S(=O)([N-]S(=O)(=O)C(F)(F)F)C(F)(F)F")
1415.3
>>> reported_measurement("CC[N+](C)(C)CCOC.O=S(=O)([N-]S(=O)(=O)C(F)(F)F)C(F)(F)F")
1386.7

Query: Please look at this compound and report its mass density: CCCC[N+](C)(C)CC.O=S(=O)([N-]S(=O)(=O)C(F)(F)F)C(F)(F)F
Reply: 1330.1

Query: Please look at this compound and report its mass density: CC[N+](C)(CCO)CCO.O=S(=O)([N-]S(=O)(=O)C(F)(F)F)C(F)(F)F
Reply: 1472.8

Query: Please look at this compound and report its mass density: C[N+](CCO)(CCO)CCO.O=S(=O)([N-]S(=O)(=O)C(F)(F)F)C(F)(F)F
Reply: 1524
